Collected ELISA values appear next to each entry.
target_of_assay: T1, PCSK9Δhelix (human, Chemically biotinylated in the phage ELISAs; the site is not given.)
T1 construct: construct M1-Q692 with engineered TEV site, cleaved by TEV; also called His-PCSK9Δhelix; open groove PCSK9Δhelix
protocol: phage spot ELISA;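 further: phage clones bound to PCSK9 or PCSK9Δhelix by ELISA, noise being the same phage on NeutrAvidin, positive when signal above 0.4 and signal:noise above 2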
Keep the answer to the number alone.

Some entries whose results are on file:
                                     binder  value_type  readout_value
0  TAFTSWEEYLDWVGSGALWNMRRVESVAFR [SEQ ID NO 319]       ELISA           3.04
1  TAFTSWEEYLDWVGSGNPTYWLTRIS [SEQ ID NO 331]       ELISA           3.02
2  TAFTSWEEYLDWVGSGGHPLWNLSRI [SEQ ID NO 316]       ELISA            2.6
3  TAFTSWEEYLDWVGSGNELWNINRLRSS [SEQ ID NO 317]       ELISA           2.76
4  TVFTSWEEYLDWV (also called phage displaying Pep2-8) [phage-displayed Pep2-8 (on p8)]       ELISA            2.1

-- ask Which ELISA value is on record for TAFTSWEEYLDWVGSGGCVKYRGSVSCQESKT [SEQ ID NO 323] ?
-- reply 2.73

-- ask So what's the measured ELISA for this one? TAFTSWEEYLDWVGSGPLLWNLQKVH [SEQ ID NO 310]
-- reply 2.76
